Biological target: SlCOI1-SlJAZ10
Assay: AlphaScreen assay, GST-SlCOI1 and Fl-SlJAZP10
Settings: calculated from AlphaScreen; 5 nM SlCOI1, 10 nM Fl-SlJAZP10
List of pKd values.
Please express pKd as -log10 of the molar concentration.

compound="CC/C=C\\C[C@@H]1C(=O)CC[C@@H]1CC(=O)N[C@H](C(=O)O)[C@@H](C)CC [JA-Ile, (+)-7-iso-Jasmonoyl-L-isoleucine]" observable=pKd data_value=6.40

So for `CC[C@H]1C=C(C(=O)N[C@@]2(C(=O)O)C[C@@H]2CC)[C@H]2CCC(=O)[C@H]2C1` , the logged pKd turned out to be 7.05

Hey, just so you know, these numbers are from paper PMC8245654.
